Attribute measured: melting point (°C)

I: Cc1cnc(-c2cc(=S)ss2)cn1
II: Nc1ccc2nc3c(c(N)c2c1)C(=O)CCC3
Q: Compare I and II by numeric melting point and name the larger one. I would appreciate it if you answered with the label of your choice.
Ans: II
(II: 310 °C, I: 192 °C)

###

Readings of melting point for the listed compounds

Example compounds with recorded melting point:
Compound: COc1ccccc1N1CCC(CNC(=O)Nc2c(C(C)C)cc(N)cc2C(C)C)(c2cccc(OCCCO)c2)CC1
melting point: 203 to 205 °C
//
Compound: CC(=O)CCc1ccc(C(=O)c2ccc(Cl)cc2)cc1
melting point: 91 to 92 °C
//
Compound: CCc1cc(C#N)cc2c(NCc3ccc(OC)c(Cl)c3)c(C(=O)Oc3c(F)c(F)c(F)c(F)c3F)cnc12
melting point: 169 to 170 °C

Shift focus to the following entry.
Q: Given Cc1ccc(S(=O)(=O)n2c(C3(O)C=CC(=O)c4ccccc43)cc3ccccc32)cc1 (centres undefined) , state its recorded melting point.
Ans: 110 to 112 °C
